Biological target: T1, recombinant human MASP1 active protease (amino acids 297-699, C-terminal His Tag) (human, UniProt P48740 297-699)
T1 sequence: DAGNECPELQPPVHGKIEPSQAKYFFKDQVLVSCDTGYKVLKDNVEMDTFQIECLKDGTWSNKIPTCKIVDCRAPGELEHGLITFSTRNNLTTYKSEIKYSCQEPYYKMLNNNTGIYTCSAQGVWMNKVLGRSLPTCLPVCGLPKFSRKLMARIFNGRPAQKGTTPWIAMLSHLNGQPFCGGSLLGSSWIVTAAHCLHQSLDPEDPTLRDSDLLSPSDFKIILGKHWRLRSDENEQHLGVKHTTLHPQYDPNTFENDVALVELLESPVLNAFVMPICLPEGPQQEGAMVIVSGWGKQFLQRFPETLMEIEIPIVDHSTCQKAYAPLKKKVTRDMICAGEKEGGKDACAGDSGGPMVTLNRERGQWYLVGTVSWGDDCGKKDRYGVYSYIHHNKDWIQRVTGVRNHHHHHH
Assay: cell-based or functional assay
Numbered stars: 1 amine (or outer) side, 2 acyl side, 3 side chain; on linkers, the order of the positions; unused ones are H or OH. Bridge positions count the residues as written; N and C are the ends. Square brackets hold non-standard residues; d marks the D form. Ends that are not written are not given here. NH(CH2CH2O)4CH2CO = O=C(COCCOCCOCCOCCN[*:1])[*:2]; cPrCO(1-aminomethyl) = O=C(C1(CN[*:1])CC1)[*:2]; Oic = O=C(O)[C@@H]1C[C@@H]2CCCC[C@@H]2N1; PEG7 = NCCOCCOCCOCCOCCOCCOCCOCCC(=O)O; PEG6 = NCCOCCOCCOCCOCCOCCOCCC(=O)O; tBuAla = CC(C)(C)C[C@H](N)C(=O)O; Pen = CC(C)(S)[C@H](N)C(=O)O; NMeC = CN[C@@H](CS)C(=O)O; NMeA = CN[C@@H](C)C(=O)O; Orn = NCCC[C@H](N)C(=O)O; Sar = CNCC(=O)O
Bucketed by reported human MASP1 IC50, buckets being 1 (below 2 nM), 2 (2 nM to below 3 nM), 3 (3 nM or more)

[NMeA]ICSRSLP[Oic]I[Pen]I-OH (disulfide 3-11; N-terminus assumed; SMILES CC[C@H](C)[C@H](NC(=O)[C@H]1NC(=O)[C@H]([C@@H](C)CC)NC(=O)[C@@H]2C[C@@H]3CCCC[C@@H]3N2C(=O)[C@@H]2CCCN2C(=O)[C@H](CC(C)C)NC(=O)[C@H](CO)NC(=O)[C@H](CCCNC(=N)N)NC(=O)[C@H](CO)NC(=O)[C@@H](NC(=O)[C@@H](NC(=O)[C@H](C)NC)[C@@H](C)CC)CSSC1(C)C)C(=O)O) [((N-Me)A)-IC+SRSLP-(Oic)-I-(Pen)+I-OH] | 3
[2‑(Piperidin)acetyl]ICSRS[tBuAla]PPI[Pen]IPD-NH2 (disulfide 3-11) [(2-(Piperidin)acetyl)-IC+SRS-((tBu)A)-PPI-(Pen)+IPD-NH2] | 3
[Sar]ICSRS[tBuAla]PPI[Pen]IP[PEG6]-NH2 (disulfide 3-11; N-terminus assumed; SMILES CC[C@H](C)[C@H](NC(=O)CNC)C(=O)N[C@H]1CSSC(C)(C)[C@@H](C(=O)N[C@H](C(=O)N2CCC[C@H]2C(=O)NCCOCCOCCOCCOCCOCCOCCC(N)=O)[C@@H](C)CC)NC(=O)[C@H]([C@@H](C)CC)NC(=O)[C@@H]2CCCN2C(=O)[C@@H]2CCCN2C(=O)[C@H](CC(C)(C)C)NC(=O)[C@H](CO)NC(=O)[C@H](CCCNC(=N)N)NC(=O)[C@H](CO)NC1=O) [((N-Me)G)-IC+SRS-((tBu)A)-PPI-(Pen)+IP-(PEG5(22 atoms))-NH2] | 2
[cPrCO(1-aminomethyl)]ICSRS[tBuAla]PPI[Pen]IPD-NH2 (disulfide 3-11; N-terminus assumed; SMILES CC[C@H](C)[C@@H]1NC(=O)[C@@H]2CCCN2C(=O)[C@@H]2CCCN2C(=O)[C@H](CC(C)(C)C)NC(=O)[C@H](CO)NC(=O)[C@H](CCCNC(=N)N)NC(=O)[C@H](CO)NC(=O)[C@@H](NC(=O)[C@@H](NC(=O)C2(CN)CC2)[C@@H](C)CC)CSSC(C)(C)[C@@H](C(=O)N[C@H](C(=O)N2CCC[C@H]2C(=O)N[C@@H](CC(=O)O)C(N)=O)[C@@H](C)CC)NC1=O) [(ACMP)-IC+SRS-((tBu)A)-PPI-(Pen)+IPD-NH2] | 1
AICSRSLP[Oic]I[Pen]IPD-NH2 (disulfide 3-11) [AIC+SRSLP-(Oic)-I-(Pen)+IPD-NH2 (salt free form)] | 1
[Orn]ICSRS[tBuAla]PPI[NMeC]IPD-NH2 (disulfide 3-11; N-terminus assumed; SMILES CC[C@H](C)[C@H](NC(=O)[C@@H](N)CCCN)C(=O)N[C@H]1CSSC[C@@H](C(=O)N[C@H](C(=O)N2CCC[C@H]2C(=O)N[C@@H](CC(=O)O)C(N)=O)[C@@H](C)CC)N(C)C(=O)[C@H]([C@@H](C)CC)NC(=O)[C@@H]2CCCN2C(=O)[C@@H]2CCCN2C(=O)[C@H](CC(C)(C)C)NC(=O)[C@H](CO)NC(=O)[C@H](CCCNC(=N)N)NC(=O)[C@H](CO)NC1=O) [(Orn)-IC+SRS-((tBu)A)-PPI-((N-Me)C)+IPD-NH2] | 2
[Sar]ICSRS[tBuAla]PPI[Pen]IP[NH(CH2CH2O)4CH2CO]-NH2 (disulfide 3-11; N-terminus assumed; SMILES CC[C@H](C)[C@H](NC(=O)CNC)C(=O)N[C@H]1CSSC(C)(C)[C@@H](C(=O)N[C@H](C(=O)N2CCC[C@H]2C(=O)NCCOCCOCCOCCOCC(N)=O)[C@@H](C)CC)NC(=O)[C@H]([C@@H](C)CC)NC(=O)[C@@H]2CCCN2C(=O)[C@@H]2CCCN2C(=O)[C@H](CC(C)(C)C)NC(=O)[C@H](CO)NC(=O)[C@H](CCCNC(=N)N)NC(=O)[C@H](CO)NC1=O) [((N-Me)G)-IC+SRS-((tBu)A)-PPI-(Pen)+IP-(PEG4-CH2CO2H (15 atoms))-NH2] | 2
AICSRS[tBuAla]PPICID-OH (disulfide 3-11; N-terminus assumed; SMILES CC[C@H](C)[C@H](NC(=O)[C@H](C)N)C(=O)N[C@H]1CSSC[C@@H](C(=O)N[C@H](C(=O)N[C@@H](CC(=O)O)C(=O)O)[C@@H](C)CC)NC(=O)[C@H]([C@@H](C)CC)NC(=O)[C@@H]2CCCN2C(=O)[C@@H]2CCCN2C(=O)[C@H](CC(C)(C)C)NC(=O)[C@H](CO)NC(=O)[C@H](CCCNC(=N)N)NC(=O)[C@H](CO)NC1=O) [AIC+SRS-((t-Bu)A)-PPIC+ID-OH] | 3

Next, consider the following binder.
GET /class?item= [Sar]ICSRSLP[Oic]I[Pen]IP[PEG7]-NH2 (disulfide 3-11; N-terminus assumed; SMILES CC[C@H](C)[C@H](NC(=O)CNC)C(=O)N[C@H]1CSSC(C)(C)[C@@H](C(=O)N[C@H](C(=O)N2CCC[C@H]2C(=O)NCCOCCOCCOCCOCCOCCOCCOCCC(N)=O)[C@@H](C)CC)NC(=O)[C@H]([C@@H](C)CC)NC(=O)[C@@H]2C[C@@H]3CCCC[C@@H]3N2C(=O)[C@@H]2CCCN2C(=O)[C@H](CC(C)C)NC(=O)[C@H](CO)NC(=O)[C@H](CCCNC(=N)N)NC(=O)[C@H](CO)NC1=O) [((N-Me)G)-IC+SRSLP-(Oic)-I-(Pen)+IP-(PEG7(25 atoms))-NH2]
3
